# target-or-test-system: MMP-13 (Homo sapiens, UniProt P45452)
# Construct: made in house; host or cells: baculovirus / insect cells
# assay-remarks: biochemical
# assay-setup: recombinant human MMP-13, MCA peptide substrate 4 μM, pH 7.5, room temperature; read-out: MMP-13 IC50
Structures can show the parent of a compound that is named as a salt.
Lab note: cut-off is 1 nM. Strictly less in IC50 is condition met. Exactly 1 nM or more is condition not met.

These recorded examples may help you get a feel for the data.
Enquiry: Is IC50 of O=C(NO)C1(S(=O)(=O)c2ccc(N3CCC(OCc4ccc(COCC(F)(F)C(F)F)cc4)CC3)cc2)CCOCC1 [Example 608] strictly below 1 nM?
Return: condition not met

Enquiry: Given O=C(NO)C1(S(=O)(=O)c2ccc(N3CCC(c4cccc5c4CCCC5)CC3)cc2)CCOCC1 [Example 473] , is recorded IC50 strictly lower than 1 nM?
Return: condition not met

Enquiry: is_below(IC50, 1 nM) for O=C(NO)C1(S(=O)(=O)c2ccc(N3CCC(OCc4ccc(COCC5CCCC5)cc4)CC3)cc2)CCOCC1 [Example 605] ?
Return: condition not met

---
Enquiry: # strict comparison: is reported IC50 < 1 nM? input = O=C(NCc1ccccc1)N1CC(Oc2ccc(S(=O)(=O)C3(C(=O)NO)CCOCC3)cc2)C1 [Example 658]
Return: condition not met

Enquiry: # check: IC50 < 1 nM for O=C(NO)C1(S(=O)(=O)c2ccc(Oc3ccc(SC(F)(F)F)cc3)cc2)CCNCC1 [Example 231, Monohydrochloride]
Return: condition met

Enquiry: Could you please tell me whether IC50 recorded for O=C(c1ncc[nH]1)N1CCC(C(=O)NO)(S(=O)(=O)c2ccc(Oc3ccc(OC(F)(F)F)cc3)cc2)CC1 [Example 379] is less than 1 nM?
Return: condition met
